System: human tumor cell lines
Assay: NCI one-dose screening, mean, delta and range of growth percent over all cell lines tested
Type: cell-based
Settings: Mean over all cell lines tested
measured_property: Growth Percent (10 μM), Mean

| compound | measured_property | experimental_result |
| --- | --- | --- |
| Cc1ccc(Nc2cc3c(c4nsnc24)C(=O)c2ccccc2C3=O)cc1 [C64] | Growth Percent (10 μM), Mean | 61.35% |
| O=C1c2ccccc2C(=O)c2c1cc(N1CCCC1)c1nsnc21 [C7] | Growth Percent (10 μM), Mean | 85.69% |
| CN(C)CCNc1cc2c(c3nsnc13)C(=O)c1ccccc1C2=O [C8] | Growth Percent (10 μM), Mean | −49.52% |
| CC(C)Sc1cc2c(c3nsnc13)C(=O)c1ccccc1C2=O [C18] | Growth Percent (10 μM), Mean | −21.64% |
